targetEntity: T1, SNTG2, Q9NY99
T1 sequence (Q9NY99 68-166, limits assumed, looked up): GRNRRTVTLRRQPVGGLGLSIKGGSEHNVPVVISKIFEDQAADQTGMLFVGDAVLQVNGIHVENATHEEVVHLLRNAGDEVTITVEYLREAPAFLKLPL
assayProcedure: holdup assay
Set-up: key: below the threshold = too weak to quantify, mostly under pKd 3.1 to 4
experimentalContext: plain residues with an end cap or a label only (N-terminal biotin on a linker: ahx)
observedProperty: pKd

Example results:
QPRTWLQSPV [RTKN, Q9BST9] = below the threshold
APSRKLNTEI [TIAM1, Q13009] = below the threshold
QDEKVKESYV [ABCA1, O95477] = 5.06
QNTDDVQTSF [ACE2, Q9BYF1] = below the threshold
TESNLQTSSC [CGN, Q9P2M7] = below the threshold
TEAKLTETNA [MYO18A, Q92614] = below the threshold

Could you share which pKd value was measured for HTHSYIETHV [CNKSR2, Q8WXI2] ? 4.67

Thanks! And EKQAKGDTEF [CACYBP, Q9HB71] ? below the threshold

Likewise for TQKFRASTAL [FRMPD1, Q5SYB0] ? below the threshold
